Source: ChEMBL document CHEMBL4020781

# PROTOCOL_SUMMARY: Hepatic extraction ratio in rat liver microsomes
# Type: ADME, microsome
# TEST_CONDITIONS: read-out: ERH
EXPERIMENTAL_READOUT: hepatic extraction ratio
Just the number, please.

Here is how some molecules turned out for hepatic extraction ratio.
O=C(Nc1ncc(F)s1)[C@H](CC1CCCC1)n1cc(S(=O)(=O)C2CC2)cn1 :: 0.85
O=C(Nc1ncc(F)s1)[C@H](CC1CCOCC1)n1ncc2c(S(=O)(=O)C3CC3)cncc21 :: 0.33

[Q] Which measured hepatic extraction ratio value corresponds to O=C(Nc1ncc(Cl)s1)[C@H](CC1CCCC1)n1cc(S(=O)(=O)C2CC2)cn1 ?
[A] 0.85

###

Attribute: inhibition at 10 µM
# STUDY_TARGET: hERG (KCNH2) (Homo sapiens)
# Sequence (Q12809 whole entry): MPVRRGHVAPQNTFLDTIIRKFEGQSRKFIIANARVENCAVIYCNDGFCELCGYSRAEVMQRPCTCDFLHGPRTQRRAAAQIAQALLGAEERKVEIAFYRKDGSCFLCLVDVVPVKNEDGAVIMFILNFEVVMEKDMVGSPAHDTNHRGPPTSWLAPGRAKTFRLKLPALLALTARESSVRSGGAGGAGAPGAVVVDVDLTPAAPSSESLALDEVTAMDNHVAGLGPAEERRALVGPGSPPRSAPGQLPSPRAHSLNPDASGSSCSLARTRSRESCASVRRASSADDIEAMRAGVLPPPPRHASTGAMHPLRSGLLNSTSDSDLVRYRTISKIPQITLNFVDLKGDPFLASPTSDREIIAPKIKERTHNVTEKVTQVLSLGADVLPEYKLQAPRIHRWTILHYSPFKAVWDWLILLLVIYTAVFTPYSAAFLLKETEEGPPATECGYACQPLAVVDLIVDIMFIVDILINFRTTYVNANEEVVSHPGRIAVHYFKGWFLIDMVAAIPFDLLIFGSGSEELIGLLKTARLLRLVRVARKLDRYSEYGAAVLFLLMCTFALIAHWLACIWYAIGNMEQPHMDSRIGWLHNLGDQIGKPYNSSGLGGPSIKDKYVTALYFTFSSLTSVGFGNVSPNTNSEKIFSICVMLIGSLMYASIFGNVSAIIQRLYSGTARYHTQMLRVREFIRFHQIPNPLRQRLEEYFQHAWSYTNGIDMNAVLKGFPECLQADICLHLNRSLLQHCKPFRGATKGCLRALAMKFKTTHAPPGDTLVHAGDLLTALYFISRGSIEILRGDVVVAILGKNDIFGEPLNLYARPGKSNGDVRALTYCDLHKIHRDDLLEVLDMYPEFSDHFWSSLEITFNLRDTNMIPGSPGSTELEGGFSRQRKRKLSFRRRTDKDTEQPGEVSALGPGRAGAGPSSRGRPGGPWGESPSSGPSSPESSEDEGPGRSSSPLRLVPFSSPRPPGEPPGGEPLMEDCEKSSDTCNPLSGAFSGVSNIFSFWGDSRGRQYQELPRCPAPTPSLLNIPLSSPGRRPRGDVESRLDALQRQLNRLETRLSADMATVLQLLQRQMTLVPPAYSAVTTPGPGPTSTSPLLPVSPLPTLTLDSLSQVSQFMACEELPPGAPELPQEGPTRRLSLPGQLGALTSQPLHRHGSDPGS
# PROTOCOL_SUMMARY: Inhibition of human ERG at 10 uM
Give the value, in units of %, as a plain number.

[Q] Which measured inhibition at 10 µM value corresponds to O=C(Nc1ncc(F)s1)[C@H](CC1CCOCC1)n1ncc2c(S(=O)(=O)C3CC3)ccnc21 ?
[A] 71

[Q] Which measured inhibition at 10 µM value corresponds to NC(=O)c1cccnc1NC(=O)C(CC1CCOCC1)n1ncc2c(S(=O)(=O)C3CC3)cccc21 (racemic) ?
[A] 29

[Q] Which measured inhibition at 10 µM value corresponds to O=C(Nc1ncc(F)s1)[C@H](CC1CCOCC1)n1ncc2c(S(=O)(=O)C3CC3)cc(F)cc21 ?
[A] 77

[Q] Which measured inhibition at 10 µM value corresponds to Cc1ccc(NC(=O)C(CC2CCOCC2)n2ncc3c(S(=O)(=O)C4CC4)cccc32)nn1 (racemic) ?
[A] 57

[Q] Which measured inhibition at 10 µM value corresponds to O=C(Nc1ncc(F)s1)[C@H](CC1CCOCC1)n1ncc2c(S(=O)(=O)C3CC3)cccc21 ?
[A] 84

[Q] Which measured inhibition at 10 µM value corresponds to O=C(Nc1ccn(CCO)n1)C(CC1CCOCC1)n1ncc2c(S(=O)(=O)C3CC3)cccc21 (racemic) ?
[A] 12.5

[Q] Which measured inhibition at 10 µM value corresponds to O=C(Nc1cnccn1)[C@H](CC1CCOCC1)n1ncc2c(S(=O)(=O)C3CC3)cccc21 ?
[A] 45

###

Attribute: %max
# STUDY_TARGET: Hexokinase-4 (Homo sapiens)
# PROTOCOL_SUMMARY: Activation of full length human C-terminal FLAG-tagged glucokinase (12 to 465 residues) expressed in Escherichia coli DH10b using glucose as substrate after 60 mins in presence of ATP by kinase-glo luminescence assay relative to control
Give the value, in units of %, as a plain number.

O=C(Nc1cnccn1)[C@H](CC1CCOCC1)n1ncc2c(S(=O)(=O)C3CC3)cccc21 :: 95

[Q] Which measured %max value corresponds to COc1cc(S(=O)(=O)C2CC2)c2cnn([C@@H](CC3CCOCC3)C(=O)Nc3ncc(F)s3)c2c1 ?
[A] 100

[Q] Which measured %max value corresponds to O=C(Nc1ncc(Cl)s1)[C@H](CC1CCOCC1)n1cc(S(=O)(=O)C2CC2)cn1 ?
[A] 35

[Q] Which measured %max value corresponds to NC(=O)c1cc(S(=O)(=O)C2CC2)c2cnn([C@@H](CC3CCOCC3)C(=O)Nc3ncc(F)s3)c2c1 ?
[A] 97
